# TARGET_UNDER_TEST: UniProt P35348
# Sequence (P35348 whole entry): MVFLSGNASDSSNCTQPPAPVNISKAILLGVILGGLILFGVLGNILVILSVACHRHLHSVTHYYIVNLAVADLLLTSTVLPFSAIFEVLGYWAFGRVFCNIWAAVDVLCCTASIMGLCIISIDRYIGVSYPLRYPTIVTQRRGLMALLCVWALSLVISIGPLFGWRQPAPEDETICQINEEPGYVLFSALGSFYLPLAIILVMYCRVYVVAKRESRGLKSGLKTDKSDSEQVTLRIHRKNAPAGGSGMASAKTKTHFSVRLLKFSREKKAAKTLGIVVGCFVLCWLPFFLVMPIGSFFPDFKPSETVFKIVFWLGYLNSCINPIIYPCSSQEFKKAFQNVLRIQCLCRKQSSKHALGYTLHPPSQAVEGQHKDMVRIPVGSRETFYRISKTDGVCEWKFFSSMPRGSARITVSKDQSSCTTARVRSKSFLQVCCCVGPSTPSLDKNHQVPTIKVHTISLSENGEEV
# ASSAY_TEXT: Displacement of [3H]prazosin from cloned human adrenergic alpha 1A receptor expressed in CHO cells
# Assay type: cell-based
pKi: −log10 of the molar value.
ASSAY_METRIC: pKi

Find the recorded pKi belonging to COc1cccc(OC)c1OCCNC[C@H]1COc2cc3c(cc2O1)CCCC3 and report it.
7.60

[1] COc1ccc2c(c1OCCNC[C@H]1COc3ccccc3O1)CCCC2
[2] COc1cccc(-c2ccccc2)c1OCCNC[C@H]1COc2ccccc2O1
Lab note: check whether 1 or 2 has the lower measured pKi. # reply format: chosen label
1

====

# TARGET_UNDER_TEST: Alpha adrenergic receptor 1A and 1B (Rattus norvegicus) (UniProt P15823+P43140)
# Sequence (P15823 whole entry, looked up, one chain of several): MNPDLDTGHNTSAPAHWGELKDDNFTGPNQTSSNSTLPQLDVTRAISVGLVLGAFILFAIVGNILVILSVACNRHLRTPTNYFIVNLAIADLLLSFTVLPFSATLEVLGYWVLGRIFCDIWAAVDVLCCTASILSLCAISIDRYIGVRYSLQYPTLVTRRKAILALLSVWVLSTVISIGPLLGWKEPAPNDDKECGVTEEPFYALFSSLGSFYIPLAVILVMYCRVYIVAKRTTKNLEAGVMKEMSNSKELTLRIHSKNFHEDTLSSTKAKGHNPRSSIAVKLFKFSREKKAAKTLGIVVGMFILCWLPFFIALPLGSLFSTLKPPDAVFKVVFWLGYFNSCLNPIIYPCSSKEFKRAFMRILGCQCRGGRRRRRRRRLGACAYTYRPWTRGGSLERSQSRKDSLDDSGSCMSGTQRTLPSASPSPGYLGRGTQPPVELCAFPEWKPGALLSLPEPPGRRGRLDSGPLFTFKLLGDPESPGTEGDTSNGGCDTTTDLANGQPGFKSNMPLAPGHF
# ASSAY_TEXT: Selectivity for Sprague-Dawley rat adrenergic alpha 1B receptor over adrenergic alpha 1A receptor
# Format: functional
ASSAY_METRIC: Selectivity ratio

[1] COc1ccc2c(c1OCCNC[C@H]1COc3ccccc3O1)CCCC2
[2] COc1cc(-c2ccccc2)ccc1OCCNC[C@H]1COc2ccccc2O1
Endpoint returns whichever of 1 and 2 has the numerically higher Selectivity ratio. Use the label to indicate which entry you chose.
2
(2: 0.17, 1: 0.05)

====

# TARGET_UNDER_TEST: Alpha-2A adrenergic receptor (Rattus norvegicus)
# Sequence (P22909 whole entry): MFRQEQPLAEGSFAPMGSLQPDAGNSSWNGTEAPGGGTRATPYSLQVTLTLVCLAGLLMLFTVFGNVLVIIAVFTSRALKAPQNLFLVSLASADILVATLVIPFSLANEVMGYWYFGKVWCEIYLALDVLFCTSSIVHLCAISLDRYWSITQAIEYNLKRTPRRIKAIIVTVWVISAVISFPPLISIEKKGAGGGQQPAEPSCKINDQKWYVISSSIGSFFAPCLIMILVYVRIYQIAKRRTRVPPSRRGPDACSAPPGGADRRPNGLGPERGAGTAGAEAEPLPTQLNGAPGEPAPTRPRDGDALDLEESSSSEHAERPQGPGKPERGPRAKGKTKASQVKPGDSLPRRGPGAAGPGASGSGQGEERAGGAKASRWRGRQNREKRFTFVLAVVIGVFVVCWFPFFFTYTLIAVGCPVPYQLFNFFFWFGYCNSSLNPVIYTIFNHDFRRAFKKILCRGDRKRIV
# ASSAY_TEXT: Activity at adrenergic alpha 2A receptor assessed as antagonism on clonidine-inhibited twitch responses of field-stimulated Sprague-Dawley rat vas deferens
# STUDY_CONDITIONS: read-out: pA2 (converted)
ASSAY_METRIC: Kb (nM)

Below: 2 molecules and their reported Kb.
Could you tell me which Kb is on file for COc1cccc(OC)c1OCCNC[C@H]1COc2ccccc2O1.Cl ?
120

Please give the result for COc1cccc(OC)c1OCCNC[C@@H]1COc2ccccc2O1 too.
457

[A] COc1ccc2ccccc2c1OCCNC[C@@H]1COc2ccccc2O1
[B] COc1cccc(OC)c1OCCNCC1COc2ccccc2O1 (configuration not stated)
[C] COc1ccc2ccccc2c1OCCNC[C@H]1COc2ccccc2O1
Rank order required: Kb, descending. The reply should contain the labels ordered as requested.
C, A, B

====

# TARGET_UNDER_TEST: Alpha-1A adrenergic receptor (Rattus norvegicus, UniProt P43140)
# Sequence (P43140 whole entry): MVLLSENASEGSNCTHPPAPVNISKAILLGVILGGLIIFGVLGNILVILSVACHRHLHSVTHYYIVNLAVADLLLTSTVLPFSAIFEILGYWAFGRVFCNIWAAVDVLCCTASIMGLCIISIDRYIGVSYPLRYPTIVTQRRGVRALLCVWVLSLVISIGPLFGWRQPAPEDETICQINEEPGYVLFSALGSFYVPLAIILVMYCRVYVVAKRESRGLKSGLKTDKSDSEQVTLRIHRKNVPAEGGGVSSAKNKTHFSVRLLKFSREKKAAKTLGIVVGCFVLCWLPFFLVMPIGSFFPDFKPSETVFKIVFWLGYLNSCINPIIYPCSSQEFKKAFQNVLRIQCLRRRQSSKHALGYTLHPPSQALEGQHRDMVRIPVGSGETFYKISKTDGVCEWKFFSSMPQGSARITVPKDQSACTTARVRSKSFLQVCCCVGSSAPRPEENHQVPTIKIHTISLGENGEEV
# ASSAY_TEXT: Activity at adrenergic alpha 1A receptor assessed as antagonism of noradrenaline-induced contraction of Sprague-Dawley rat vas deferens
# Assay type: functional, tissue-based
# STUDY_CONDITIONS: read-out: pA2 (converted)
ASSAY_METRIC: Kb (nM)

Query (compound): COc1cccc(OC)c1OCCNC[C@@H]1COc2ccccc2O1 ; field requested: Kb
16.2

Ok, now COc1ccc2c(c1OCCNC[C@H]1COc3ccccc3O1)CCCC2
91.2

Follow-up item: COc1ccc2ccccc2c1OCCNC[C@@H]1COc2ccccc2O1
58.9

[a] COc1cccc(OC)c1OCCNC[C@H]1COc2cc3ccccc3cc2O1
[b] COc1cc(-c2ccccc2)ccc1OCCNC[C@H]1COc2ccccc2O1
// compare measured Kb between a and b ; output the lower one Identify your selection by its label.
b

[a] COc1ccc2ccccc2c1OCCNC[C@H]1COc2ccccc2O1
[b] COc1ccc2ccccc2c1OCCNC[C@H]1COc2cc3c(cc2O1)CCCC3
[c] COc1cccc(-c2ccccc2)c1OCCNC[C@H]1COc2ccccc2O1
Sort entries by Kb from minimum to maximum value. Sort and list the labels as requested.
a, c, b
(a: 1.1 nM, c: 6.17 nM, b: 10.5 nM)

====

# TARGET_UNDER_TEST: Alpha adrenergic receptor (1a and 1d) (Homo sapiens) (UniProt P35348+P25100)
# Sequence (P25100 whole entry, looked up, one chain of several): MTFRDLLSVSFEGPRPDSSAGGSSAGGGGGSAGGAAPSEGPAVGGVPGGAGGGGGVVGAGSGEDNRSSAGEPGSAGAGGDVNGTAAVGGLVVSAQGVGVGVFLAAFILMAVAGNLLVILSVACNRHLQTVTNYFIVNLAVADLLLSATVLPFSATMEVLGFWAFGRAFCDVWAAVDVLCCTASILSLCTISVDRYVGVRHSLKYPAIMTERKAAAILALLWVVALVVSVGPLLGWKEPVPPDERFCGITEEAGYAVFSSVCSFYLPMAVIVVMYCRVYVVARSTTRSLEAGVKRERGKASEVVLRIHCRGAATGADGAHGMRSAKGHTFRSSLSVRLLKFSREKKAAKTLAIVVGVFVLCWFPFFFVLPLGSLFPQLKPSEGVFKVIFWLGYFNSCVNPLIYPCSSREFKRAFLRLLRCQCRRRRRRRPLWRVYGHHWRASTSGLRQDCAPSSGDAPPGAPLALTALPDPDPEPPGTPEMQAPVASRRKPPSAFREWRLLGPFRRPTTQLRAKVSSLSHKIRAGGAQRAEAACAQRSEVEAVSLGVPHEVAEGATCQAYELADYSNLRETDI
# ASSAY_TEXT: Selectivity for human adrenergic alpha 1A receptor over human adrenergic alpha 1D receptor
ASSAY_METRIC: Selectivity ratio

Answered examples (5):
Param readout = Selectivity ratio; param system = Alpha adrenergic receptor (1a and 1d) (Homo sapiens) (UniProt P35348+P25100); param query = COc1cccc(OC)c1OCCNC[C@H]1COc2cc3ccccc3cc2O1 ; response: value
12.3

Same question, COc1cccc(OC)c1OCCNC[C@@H]1COc2cc3c(cc2O1)CCCC3 this time
2

Please do the same for COc1ccc2c(c1OCCNC[C@@H]1COc3ccccc3O1)CCCC2 as well.
1.3

Cool, now COc1ccc2ccccc2c1OCCNC[C@@H]1COc2cc3c(cc2O1)CCCC3
3

What about COc1cccc(OC)c1OCCNC[C@H]1COc2cc3c(cc2O1)CCCC3 ?
13.5

[P] COc1cccc(-c2ccccc2)c1OCCNC[C@H]1COc2ccccc2O1
[Q] COc1cc(-c2ccccc2)ccc1OCCNC[C@@H]1COc2ccccc2O1
Between these two entries, P and Q , state which has the higher Selectivity ratio. API: response body contains the label of the selected item.
P
(P: 2.8, Q: 1.5)

[a] COc1ccc(-c2ccccc2)cc1OCCNC[C@H]1COc2ccccc2O1
[b] COc1ccc2ccccc2c1OCCNC[C@H]1COc2ccccc2O1
For this pair, a and b , which shows a numerically higher Selectivity ratio? Pick one and reply with its label.
b
(b: 4.2, a: 2.7)

[A] COc1ccc2ccccc2c1OCCNC[C@H]1COc2cc3c(cc2O1)CCCC3
[B] COc1ccc2c(c1OCCNC[C@H]1COc3ccccc3O1)CCCC2
[C] COc1ccc(-c2ccccc2)cc1OCCNC[C@@H]1COc2ccccc2O1
Rank items: key Selectivity ratio, increasing. Provide the labels, sequenced as the question asks.
A, C, B
(A: 2.2, C: 3.3, B: 5.1)

[a] COc1ccc2ccccc2c1OCCNC[C@@H]1COc2ccccc2O1
[b] COc1cc(-c2ccccc2)ccc1OCCNC[C@H]1COc2ccccc2O1
Sorting by Selectivity ratio in descending order, would a or b appear first? Record your answer as the label of the chosen record.
a

====

# TARGET_UNDER_TEST: UniProt:P43140
# Sequence (P43140 whole entry): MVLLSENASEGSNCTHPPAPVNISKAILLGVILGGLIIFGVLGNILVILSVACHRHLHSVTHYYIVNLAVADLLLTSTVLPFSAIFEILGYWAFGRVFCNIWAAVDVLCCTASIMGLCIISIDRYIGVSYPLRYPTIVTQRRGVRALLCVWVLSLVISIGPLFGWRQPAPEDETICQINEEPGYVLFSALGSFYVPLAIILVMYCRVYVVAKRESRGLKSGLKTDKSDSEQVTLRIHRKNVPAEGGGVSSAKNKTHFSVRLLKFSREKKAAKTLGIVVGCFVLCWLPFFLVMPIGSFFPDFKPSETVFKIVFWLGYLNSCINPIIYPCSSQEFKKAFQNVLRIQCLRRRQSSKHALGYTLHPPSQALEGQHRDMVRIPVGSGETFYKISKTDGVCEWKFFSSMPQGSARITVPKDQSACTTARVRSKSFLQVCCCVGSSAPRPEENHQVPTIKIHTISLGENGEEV
# ASSAY_TEXT: Activity at adrenergic alpha 1A receptor assessed as antagonsim of noradrenaline-induced contraction of […]
# Format: functional, tissue-based, Sprague-Dawley
# STUDY_CONDITIONS: read-out: pA2 (converted)
ASSAY_METRIC: Kb (µM)

Completed entries (count: 2):
# get_value(readout= Kb, system= UniProt:P43140) for COc1cccc(OC)c1OCCNC[C@H]1COc2ccccc2O1.Cl
0.000324

Follow-up item: COc1cccc(OC)c1OCCNC[C@@H]1COc2ccccc2O1
0.02

[A] COc1ccc2ccccc2c1OCCNC[C@H]1COc2cc3c(cc2O1)CCCC3
[B] COc1cccc(OC)c1OCCNCC1COc2ccccc2O1 (centres undefined)
Consider entries A and B . Which has the numerically lower Kb? Please indicate the selected item by its label.
B
(B: 0.000661 µM, A: 0.0427 µM)
